assay: Stability: degradation products (DP) and appearance (color) under stress conditions; assay type: physicochemical; settings: Solid state, 1 week 80° C./175% r.h; Bulk (HPLC)
Observation Type: DP (%)

Some compounds with known DP results, for comparison:
- CS(=O)(=O)O.Cn1c(Nc2ccc(C(F)(F)F)cc2)nc2cc(Oc3ccnc(-c4ncc(C(F)(F)F)[nH]4)c3)ccc21 [Mesylate]: 0.8
- CCS(=O)(=O)O.Cn1c(Nc2ccc(C(F)(F)F)cc2)nc2cc(Oc3ccnc(-c4ncc(C(F)(F)F)[nH]4)c3)ccc21 [Esylate]: 0.6

A = Cn1c(Nc2ccc(C(F)(F)F)cc2)nc2cc(Oc3ccnc(-c4ncc(C(F)(F)F)[nH]4)c3)ccc21
B = Cn1c(Nc2ccc(C(F)(F)F)cc2)nc2cc(Oc3ccnc(-c4ncc(C(F)(F)F)[nH]4)c3)ccc21.O=C(O)/C=C\C(=O)O [Maleate]
From the items above, decide which of A and B has the lower DP reading. Lab note: record the label of whichever item you select.
B
